Give measured activity at 0.003 µM for each item. Keep answers brief.
Target: progesterone receptor (Oryctolagus cuniculus, UniProt P06186)
Construct: On the fifth day the uterus was excised, weighed and homogenized; from tissue
Experiment: Competition of a series of steroids with [^3 H]R5020 and [^125 I]EVNT (specificity)
Format: binding, rabbit
Settings: radioligand [^3 H]R5020 (0.67 nM); competitor 3 nM; read-out: B/Bo × 10^2
Give bare numbers, in %.

Consider the following illustrative entries.
# COMPOUND, STUDY_TARGET, activity at 0.003 µM, %
rows = [
    ("CCC(=O)[C@@]1(C)CC[C@H]2[C@@H]3CCC4=CC(=O)CCC4=C3CC[C@@]21C [R5020]", "progesterone receptor (Oryctolagus cuniculus, UniProt P06186)", 34),
    ("C[C@@H]1C[C@H]2[C@@H]3CCC4=CC(=O)C=C[C@]4(C)[C@@]3(F)[C@@H](O)C[C@]2(C)[C@@]1(O)C(=O)CO [Dexamethasone]", "progesterone receptor (Oryctolagus cuniculus, UniProt P06186)", 103),
    ("C[C@]12CCC(=O)C=C1CC[C@@H]1[C@@H]2[C@@H](O)C[C@@]2(C)[C@H]1CC[C@]2(O)C(=O)CO [Cortisol]", "progesterone receptor (Oryctolagus cuniculus, UniProt P06186)", 98),
]

The record that follows has no activity at 0.003 µM shown yet.
Output reported activity at 0.003 µM of the compound CC(=O)[C@H]1CC[C@H]2[C@@H]3CCC4=CC(=O)CC[C@]4(C)[C@H]3CC[C@]12C [Progesterone] on progesterone receptor (Oryctolagus cuniculus, UniProt P06186).
94

----------
Give measured activity at 0.1 µM for each item. Keep answers brief.
Target: progesterone receptor (Oryctolagus cuniculus)
Construct: On the fifth day the uterus was excised, weighed and homogenized; from tissue
Test: Competition of a series of steroids with [^3 H]R5020 and [^125 I]EVNT (specificity)
Type: binding, rabbit
Conditions: radioligand [^3 H]R5020 (0.67 nM); competitor 100 nM; read-out: B/Bo × 10^2
Give bare numbers, in %.

Consider the following illustrative entries.
# SMILES_CODE, activity at 0.1 µM, %
records = [
    ("CCC(=O)[C@@]1(C)CC[C@H]2[C@@H]3CCC4=CC(=O)CCC4=C3CC[C@@]21C", 0),
    ("C[C@]12CCC(=O)C=C1CC[C@@H]1[C@@H]2[C@@H](O)C[C@@]2(C)[C@H]1CC[C@]2(O)C(=O)CO", 106),
    ("CC(=O)[C@H]1CC[C@H]2[C@@H]3CCC4=CC(=O)CC[C@]4(C)[C@H]3CC[C@]12C", 37),
]

The record that follows has no activity at 0.1 µM shown yet.
Supply recorded activity at 0.1 µM for C[C@@H]1C[C@H]2[C@@H]3CCC4=CC(=O)C=C[C@]4(C)[C@@]3(F)[C@@H](O)C[C@]2(C)[C@@]1(O)C(=O)CO here.
101

----------
Target: progesterone receptor (Oryctolagus cuniculus, UniProt P06186)
Construct: On the fifth day the uterus was excised, weighed and homogenized; from tissue
Sequence (P06186 1-930): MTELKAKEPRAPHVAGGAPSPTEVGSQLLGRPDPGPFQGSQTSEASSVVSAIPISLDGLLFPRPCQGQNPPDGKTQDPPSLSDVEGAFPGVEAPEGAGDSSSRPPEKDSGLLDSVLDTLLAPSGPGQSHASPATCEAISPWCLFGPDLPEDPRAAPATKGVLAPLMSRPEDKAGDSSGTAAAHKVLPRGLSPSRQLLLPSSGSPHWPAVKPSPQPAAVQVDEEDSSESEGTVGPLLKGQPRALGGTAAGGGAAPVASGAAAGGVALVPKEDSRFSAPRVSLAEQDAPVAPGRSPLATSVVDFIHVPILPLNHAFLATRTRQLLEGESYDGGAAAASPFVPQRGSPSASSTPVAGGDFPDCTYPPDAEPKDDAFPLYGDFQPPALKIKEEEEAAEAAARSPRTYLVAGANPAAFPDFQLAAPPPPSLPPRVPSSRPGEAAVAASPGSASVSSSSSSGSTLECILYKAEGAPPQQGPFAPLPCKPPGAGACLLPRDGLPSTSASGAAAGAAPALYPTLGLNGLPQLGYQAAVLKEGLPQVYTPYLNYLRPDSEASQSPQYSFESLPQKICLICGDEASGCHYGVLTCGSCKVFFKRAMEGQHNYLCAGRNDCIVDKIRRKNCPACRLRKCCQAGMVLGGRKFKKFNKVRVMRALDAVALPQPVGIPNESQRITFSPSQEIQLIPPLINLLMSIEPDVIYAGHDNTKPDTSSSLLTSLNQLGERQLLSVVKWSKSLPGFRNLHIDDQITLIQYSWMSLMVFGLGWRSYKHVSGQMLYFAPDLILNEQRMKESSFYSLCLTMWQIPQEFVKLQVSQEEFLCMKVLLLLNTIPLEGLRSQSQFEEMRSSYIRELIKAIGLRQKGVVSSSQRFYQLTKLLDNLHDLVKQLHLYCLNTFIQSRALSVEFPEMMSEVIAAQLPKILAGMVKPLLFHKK
Test: Competition of a series of steroids with [^3 H]R5020 and [^125 I]EVNT (specificity)
Assay type: binding, rabbit
Conditions: radioligand [^125 I]EVNT (0.18 nM); competitor 100 nM; read-out: B/Bo × 10^2
PROPERTY_MEASURED: activity at 0.1 µM (%)
Numbers only, in %.

# MOLECULE, STUDY_TARGET, VALUE
measured = [
    ("CCC(=O)[C@@]1(C)CC[C@H]2[C@@H]3CCC4=CC(=O)CCC4=C3CC[C@@]21C [R5020]", "progesterone receptor (Oryctolagus cuniculus, UniProt P06186)", 0),
    ("CC(=O)[C@H]1CC[C@H]2[C@@H]3CCC4=CC(=O)CC[C@]4(C)[C@H]3CC[C@]12C [Progesterone]", "progesterone receptor (Oryctolagus cuniculus, UniProt P06186)", 22),
    ("C[C@@H]1C[C@H]2[C@@H]3CCC4=CC(=O)C=C[C@]4(C)[C@@]3(F)[C@@H](O)C[C@]2(C)[C@@]1(O)C(=O)CO [Dexamethasone]", "progesterone receptor (Oryctolagus cuniculus, UniProt P06186)", 100),
]

The record that follows has no activity at 0.1 µM shown yet.
Supply recorded activity at 0.1 µM for C[C@]12CCC(=O)C=C1CC[C@@H]1[C@@H]2[C@@H](O)C[C@@]2(C)[C@H]1CC[C@]2(O)C(=O)CO [Cortisol] here.
102

----------
Molecular target: progesterone receptor (Oryctolagus cuniculus, UniProt P06186)
Construct: On the fifth day the uterus was excised, weighed and homogenized; from tissue
Test: Competition of a series of steroids with [^3 H]R5020 and [^125 I]EVNT (specificity)
Type: binding, rabbit
Conditions: [^3 H]R5020 and [^125 I]EVNT
PROPERTY_MEASURED: competing for sites with either ligand (in words)

# SMILES_CODE, VALUE
measured = [
    ("CC(=O)[C@H]1CC[C@H]2[C@@H]3CCC4=CC(=O)CC[C@]4(C)[C@H]3CC[C@]12C", "substantial competition"),
    ("C[C@]12CC[C@H]3[C@@H](CCC4=CC(=O)CC[C@@H]43)[C@@H]1CC[C@@]2(O)/C=C/I", "substantial competition"),
    ("CCC(=O)[C@@]1(C)CC[C@H]2[C@@H]3CCC4=CC(=O)CCC4=C3CC[C@@]21C", "substantial competition"),
]

----------
Give measured Ki for each item. Keep answers brief.
Biological target: progesterone receptor (Oryctolagus cuniculus)

Consider the following illustrative entries.
# SMILES_CODE, STUDY_TARGET, Ki
data = [
    ("C[C@]12CC[C@H]3[C@@H](CCC4=CC(=O)CC[C@@H]43)[C@@H]1C[C@@H](I)[C@@H]2O", "progesterone receptor (Oryctolagus cuniculus)", "39.8 nM"),
    ("C[C@]12CC[C@H]3[C@@H](CCC4=CC(=O)CC[C@@H]43)[C@@H]1CC[C@@]2(O)/C=C/I", "progesterone receptor (Oryctolagus cuniculus)", "4.26 nM"),
]

The record that follows has no Ki shown yet.
Supply recorded Ki for C[C@]12CC[C@H]3[C@@H](CCC4=CC(=O)CC[C@@H]43)[C@@H]1CC[C@@]2(O)/C=C\I here.
1.81 nM

----------
Target: progesterone receptor (Oryctolagus cuniculus, UniProt P06186)
Construct: On the fifth day the uterus was excised, weighed and homogenized; from tissue
Assay: Saturation and Scatchard analysis of the progesterone receptor with [^125 I]EVNT and [^3 H]R5020
Assay type: binding, rabbit
PROPERTY_MEASURED: pKd
Give bare numbers, as −log10 of the molar value.

Supply recorded pKd for C[C@]12CC[C@H]3[C@@H](CCC4=CC(=O)CC[C@@H]43)[C@@H]1CC[C@@]2(O)/C=C/[125I] [[^125 I]EVNT] here.
8.98

----------
Target: progesterone receptor (Oryctolagus cuniculus, UniProt P06186)
Construct: On the fifth day the uterus was excised, weighed and homogenized; from tissue
Sequence (P06186 1-930): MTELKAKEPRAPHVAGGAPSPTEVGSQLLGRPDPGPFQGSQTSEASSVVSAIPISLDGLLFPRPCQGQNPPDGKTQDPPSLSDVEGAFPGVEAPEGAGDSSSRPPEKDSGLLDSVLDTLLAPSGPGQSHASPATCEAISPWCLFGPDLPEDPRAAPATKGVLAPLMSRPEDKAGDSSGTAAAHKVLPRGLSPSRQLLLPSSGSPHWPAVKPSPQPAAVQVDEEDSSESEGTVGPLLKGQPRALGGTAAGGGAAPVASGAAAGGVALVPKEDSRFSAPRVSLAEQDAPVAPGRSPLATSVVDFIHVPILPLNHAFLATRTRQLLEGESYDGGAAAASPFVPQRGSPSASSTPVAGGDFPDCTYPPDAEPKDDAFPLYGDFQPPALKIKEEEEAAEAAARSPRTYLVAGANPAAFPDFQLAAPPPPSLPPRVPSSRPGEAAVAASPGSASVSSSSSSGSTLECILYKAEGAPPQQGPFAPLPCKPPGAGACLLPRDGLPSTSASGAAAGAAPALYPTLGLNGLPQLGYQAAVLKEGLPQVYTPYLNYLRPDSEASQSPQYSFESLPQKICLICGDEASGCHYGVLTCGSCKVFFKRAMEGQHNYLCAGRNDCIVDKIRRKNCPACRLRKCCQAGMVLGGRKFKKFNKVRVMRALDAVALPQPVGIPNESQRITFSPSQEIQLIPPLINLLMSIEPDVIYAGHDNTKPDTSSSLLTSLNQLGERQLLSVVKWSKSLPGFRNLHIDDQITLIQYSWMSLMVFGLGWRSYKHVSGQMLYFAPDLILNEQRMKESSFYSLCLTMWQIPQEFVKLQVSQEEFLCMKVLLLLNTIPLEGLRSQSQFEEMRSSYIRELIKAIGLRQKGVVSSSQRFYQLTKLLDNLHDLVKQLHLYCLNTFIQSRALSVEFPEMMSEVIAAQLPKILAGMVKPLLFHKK
Experiment: Competition of a series of steroids with [^3 H]R5020 and [^125 I]EVNT (specificity)
Type: binding, rabbit
Conditions: radioligand [^125 I]EVNT (0.18 nM); competitor 3 nM; read-out: B/Bo × 10^2
PROPERTY_MEASURED: activity at 0.003 µM (%)
One number for each entry, in %.

Consider the following illustrative entries.
# SMILES_CODE, activity at 0.003 µM, %
measured = [
    ("C[C@]12CCC(=O)C=C1CC[C@@H]1[C@@H]2[C@@H](O)C[C@@]2(C)[C@H]1CC[C@]2(O)C(=O)CO", 100),
    ("C[C@@H]1C[C@H]2[C@@H]3CCC4=CC(=O)C=C[C@]4(C)[C@@]3(F)[C@@H](O)C[C@]2(C)[C@@]1(O)C(=O)CO", 96),
    ("CC(=O)[C@H]1CC[C@H]2[C@@H]3CCC4=CC(=O)CC[C@]4(C)[C@H]3CC[C@]12C", 91),
]

The record that follows has no activity at 0.003 µM shown yet.
Supply recorded activity at 0.003 µM for CCC(=O)[C@@]1(C)CC[C@H]2[C@@H]3CCC4=CC(=O)CCC4=C3CC[C@@]21C here.
74

// data source = patent US4780420A
